As shown below, each of these binders has a reported OD450 value.
target: BSA (UniProt P02769); experiment: scFv ELISA
Sequence (P02769 25-607 limits assumed): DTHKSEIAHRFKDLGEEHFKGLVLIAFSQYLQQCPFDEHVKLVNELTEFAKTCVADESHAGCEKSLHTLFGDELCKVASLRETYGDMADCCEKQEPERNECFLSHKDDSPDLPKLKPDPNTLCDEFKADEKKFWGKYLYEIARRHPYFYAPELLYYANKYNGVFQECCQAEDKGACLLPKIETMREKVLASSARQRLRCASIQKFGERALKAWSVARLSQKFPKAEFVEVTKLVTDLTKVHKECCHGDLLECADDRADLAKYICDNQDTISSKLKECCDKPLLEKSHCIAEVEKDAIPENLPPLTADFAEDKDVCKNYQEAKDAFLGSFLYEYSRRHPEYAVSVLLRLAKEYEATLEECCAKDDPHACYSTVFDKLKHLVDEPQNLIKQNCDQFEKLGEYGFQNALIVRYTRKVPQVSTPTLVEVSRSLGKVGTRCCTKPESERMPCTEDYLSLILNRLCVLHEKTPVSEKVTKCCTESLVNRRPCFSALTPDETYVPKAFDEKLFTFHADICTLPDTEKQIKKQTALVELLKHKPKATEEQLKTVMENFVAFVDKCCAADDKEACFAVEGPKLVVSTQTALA
Only the number, expressed in OD450, is required.

Would you please look over these solved cases?
INSERT INTO measurements (binder, measurement_units, reading) VALUES
  ('PcOxP_DB02_A11 (scFv, V domains shown, scFv in periplasmic extract) VH: EVQLLESGGGLVQPGGSLRLSCAASGFTFSDGYMEWVRQAPGKGLEWVAASRNIANDYTTEYADSVKGRFTISRDNSKNTLYLQMNSLRAEDTAVYYCARDYYGSSYWYFDVWGQGTLVTVSS VL: DIQMTQSPSSLSASVGDRVTITCTASESLYSSKHKVHYLAWYQQKPGKAPKLLIYGASNRYHGVPSRFSGSGSGTDFTLTISSLQPEDFATYYCAQFYYYPLTFGGGTKVEIK', 'OD450', 0.09),
  ('PcOxP_DB04_B10 (scFv, V domains shown, scFv in periplasmic extract) VH: EVQLLESGGGLVQPGGSLRLSCAASGFTDSDFYMEWVRQAPGKGLEWVAASRNKANGYTTEYADSVKGRFTISRDNSKNTLYLQMNSLRAEDTAVYYCARDYYGSSYWYFDVWGQGTLVTVSS VL: DIVMTQSPDSLAVSLGERATINCTASESLYSSKHKVHYLAWYQQKPGQPPKLLIYGASNRPIGVPDRFSGSGSGTDFTLTISSLQAEDVAVYYCGQFYSYPLTFGGGTKVEIK', 'OD450', 0.06),
  ('PcOxP_DB03_G03 (scFv, V domains shown, scFv in periplasmic extract) VH: EVQLLESGGGLVQPGGSLRLSCAASGFTSSDFYMEWVRQAPGKGLEWVAASRNKANDYTTEYADSVKGRFTISRDNSKNTLYLQMNSLRAEDTAVYYCARDYYGSSYWYFDVWGQGTLVTVSS VL: DIQMTQSPSSLSASVGDRVTITCTASQSISSSKHKVHYLAWYQQKPGKAPKLLIYGASNHYIGVPSRFSGSGSGTDFTLTISSLQPEDFATYYCAQFYSYPLTFGGGTKVEIK', 'OD450', 0.08),
  ('PcOxP_DB01_F06 (scFv, V domains shown, scFv in periplasmic extract) VH: EVQLLESGGGLVQPGGSLRLSCAASGDTFSDFYMEWVRQAPGKGLEWVAASRNKANDYTTEYADSVKGRFTISRDNSKNTLYLQMNSLRAEDTAVYYCARDYYGSSYWYFDVWGQGTLVTVSS VL: DIVMTQSPDSLAVSLGERATINCKSSQSLYYSSNKKNYLAWYQQKPGQPPKLLIYGASNRYGGVPDRFSGSGSGTDFTLTISSLQAEDVAVYYCAQFYRYPLTFGGGTKVEIK', 'OD450', 0.07);

Next binder, please.
Supply recorded OD450 for PcOxP_DB02_H07 (scFv, V domains shown, scFv in periplasmic extract) VH: EVQLLESGGGLVQPGGSLRLSCAASGFTFSSYYMEWVRQAPGKGLEWVAASRNKANDYTTEYADSVKGRFTISRDNSKNTLYLQMNSLRAEDTAVYYCARDYYGSSYWYFDVWGQGTLVTVSS VL: DIVMTQSPDSLAVSLGERATINCTASESLYSSKHKVHYLAWYQQKPGQPPKLLIYGASNRYNGVPDRFSGSGSGTDFTLTISSLQAEDVAVYYCAQFYTYPLTFGGGTKVEIK here. 0.07
